In this section, each of the compounds is paired with its reported Lightness L*.
Experiment: Evaluation of hue on glossy paper (L*, a*, b*, C* of inkjet recorded image)
Format: physicochemical
Parameters: key: CIELAB L* lightness value
Details: Glossy paper manufactured by Canon Inc.; ink with 6.0 parts compound

Examples with their reported Lightness L* follow.
COMPOUND: Cn1c(=O)cc2c3c(c(Nc4cc(Nc5nc(O)nc(Nc6cc(S(=O)(=O)O)ccc6S(=O)(=O)O)n5)ccc4S(=O)(=O)O)ccc31)C(=O)c1ccccc1-2 [Comparative Example 1, reference compound]
ENDPOINT_VALUE: 49.8
//
COMPOUND: O=C(O)c1cc(Nc2nc(O)nc(Nc3cc(Nc4cc(Oc5ccc(-c6ccc(S(=O)(=O)O)cc6)cc5S(=O)(=O)O)c5[nH]c(=O)c(C(=O)c6cccc(S(=O)(=O)O)c6)c6c5c4C(=O)c4ccccc4-6)c(S(=O)(=O)O)cc3S(=O)(=O)O)n2)cc(C(=O)O)c1 [Example 7 (No. 11)]
ENDPOINT_VALUE: 54.8
//
COMPOUND: O=C(c1cccc(S(=O)(=O)O)c1)c1c2c3c(c(Nc4cc(Nc5nc(O)nc(Nc6ccccc6S(=O)(=O)O)n5)c(S(=O)(=O)O)cc4S(=O)(=O)O)cc(Oc4ccc(-c5ccc(S(=O)(=O)O)cc5)cc4S(=O)(=O)O)c3[nH]c1=O)C(=O)c1ccccc1-2 [Example 5 (No. 1)]
ENDPOINT_VALUE: 57.8

For this compound ( O=C(O)c1ccccc1Nc1nc(O)nc(Nc2cc(Nc3cc(Oc4ccc(-c5ccc(S(=O)(=O)O)cc5)cc4S(=O)(=O)O)c4[nH]c(=O)c(C(=O)c5cccc(S(=O)(=O)O)c5)c5c4c3C(=O)c3ccccc3-5)c(S(=O)(=O)O)cc2S(=O)(=O)O)n1 [Example 6 (No. 8)] ), measured Lightness L* is 55.4

Where do these numbers come from? They come from patent US20100221502A1.
